PROCEDURE_TEXT: Measurement of saturated solubility
Format: physicochemical
CONDITION_SUMMARY: distilled water at 25° C., 72 hours
I'd be grateful if you could share measured Concentration of acetamiprid for these entries.
Give the quantity in ppm, number only.

[in] Please look up its Concentration of acetamiprid: CC(=NC#N)N(C)Cc1ccc(Cl)nc1.CO.Oc1ccc(C(c2ccc(O)cc2)C(c2ccc(O)cc2)c2ccc(O)cc2)cc1 [Clathrate compound 2]
[out] 217

[in] # input compound: CC(=NC#N)N(C)Cc1ccc(Cl)nc1.CCO.Oc1ccc(C(c2ccc(O)cc2)C(c2ccc(O)cc2)c2ccc(O)cc2)cc1 [Clathrate compound 3] ; wanted: its Concentration of acetamiprid
[out] 200

[in] Which value of Concentration of acetamiprid has been reported for CC(=NC#N)N(C)Cc1ccc(Cl)nc1.CC(=NC#N)N(C)Cc1ccc(Cl)nc1.Oc1ccc(C(c2ccc(O)cc2)C(c2ccc(O)cc2)c2ccc(O)cc2)cc1 [Clathrate compound 1] in the records?
[out] 221
